Field: OD450. Provide a value for each of the binders that follow.
Target: T1, human MSLN-R2-his protein (human, UniProt Q13421 391-486)
T1 construct: Region 2 of human mesothelin, made in HEK293E cells, His-tagged; also called human MSLN-R2 protein; hMSLN-R2-his; not shown: His tag
T1 sequence (Q13421 other isoform, or with tags, fused parts or gaps): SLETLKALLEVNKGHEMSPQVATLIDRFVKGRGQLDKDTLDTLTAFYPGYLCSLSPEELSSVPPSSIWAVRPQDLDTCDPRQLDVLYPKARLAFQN
Experiment: ELISA on coated MSLN-R2; antibody 0.0001 nM
Express your answer in OD450, writing the number without its unit.

What does the data say about its OD450? Entry: S009-F8-29.1 (antibody, human IgG1, kappa, V domains shown) VH: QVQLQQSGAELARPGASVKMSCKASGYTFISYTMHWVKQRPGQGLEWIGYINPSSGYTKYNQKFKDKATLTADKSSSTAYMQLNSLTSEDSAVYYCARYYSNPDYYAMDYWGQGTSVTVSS VL: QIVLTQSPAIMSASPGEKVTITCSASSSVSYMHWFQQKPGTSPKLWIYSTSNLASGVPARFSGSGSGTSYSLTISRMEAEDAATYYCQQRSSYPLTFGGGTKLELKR 0.05

Another: S009-F8-36.12 (antibody, human IgG1, kappa, V domains shown) VH: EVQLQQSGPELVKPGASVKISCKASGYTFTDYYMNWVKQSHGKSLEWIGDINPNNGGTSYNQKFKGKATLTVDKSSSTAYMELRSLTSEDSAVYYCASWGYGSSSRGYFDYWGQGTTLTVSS VL: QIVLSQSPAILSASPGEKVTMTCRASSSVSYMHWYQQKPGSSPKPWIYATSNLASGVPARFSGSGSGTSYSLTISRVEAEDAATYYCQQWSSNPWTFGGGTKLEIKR 0.04

Queued: Tab106 (YP218, hIgG1) (antibody, V domains shown, also called YP218 human IgG1 antibody) VH: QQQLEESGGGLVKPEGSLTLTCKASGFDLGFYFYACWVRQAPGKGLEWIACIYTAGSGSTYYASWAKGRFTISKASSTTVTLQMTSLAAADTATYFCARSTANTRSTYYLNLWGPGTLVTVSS VL: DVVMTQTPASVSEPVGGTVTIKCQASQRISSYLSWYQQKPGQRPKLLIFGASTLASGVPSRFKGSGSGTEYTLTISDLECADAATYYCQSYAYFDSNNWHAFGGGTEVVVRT 0.04
